Test system: Schistosoma mansoni
methodNotes: Antischistosomal activity against Schistosoma mansoni infected in NMRI mouse assessed as reduction in total worm burden at 100 mg/kg, po administered as single dose starting on day 49 post-infection and measured at 28 days post treatment relative to control
Assay type: functional
Set-up: scale not given: the % may be the effect or the level left
conditionSummary: time 28 day
readoutLabel: Activity
Lab note: write values as number then unit, every time.

Worked examples, 5 compounds total:
[
  {
    "compound": "CC1(C)NC(=O)N(c2ccnc3ccccc23)C1=O",
    "readoutLabel": "Activity",
    "recordedValue": "17%"
  },
  {
    "compound": "CC1(C)NC(=O)N(c2ccc(F)c(C#N)c2)C1=O",
    "readoutLabel": "Activity",
    "recordedValue": "10%"
  },
  {
    "compound": "CC1(CO)NC(=O)N(c2ccc(F)c(C(F)(F)F)c2)C1=O (stereo not given)",
    "readoutLabel": "Activity",
    "recordedValue": "0%"
  },
  {
    "compound": "CC1(C)C(=O)NC(=O)N1c1ccc(F)c(C(F)(F)F)c1",
    "readoutLabel": "Activity",
    "recordedValue": "0%"
  },
  {
    "compound": "O=C1NC2(CCCC2)C(=O)N1c1ccc(F)c(C(F)(F)F)c1",
    "readoutLabel": "Activity",
    "recordedValue": "61%"
  }
]

Q. Specify measured Activity for CC1(C)C(=O)N(c2ccc(F)c(C(F)(F)F)c2)C(=O)N1CC#N .
A. 91%

Q. For the compound CC1(C)C(=O)N(c2ccc(F)c(C(F)(F)F)c2)C(=O)N1S(C)(=O)=O , give its measured Activity value.
A. 19%

Q. Recall and state the measured Activity for O=C1CNC(=O)N1c1ccc(F)c(C(F)(F)F)c1 .
A. 0%

Q. Output measured Activity for this item: CC1(C)NC(=O)N(c2ccc(F)c(C(F)(F)F)c2)C1=O
A. 95%

Q. Find the measured Activity of CC1(C)NC(=O)N(c2ccncc2)C1=O and report it.
A. 1.8%

Q. Quote Activity reported for O=C1C2CCCN2C(=O)N1c1ccc(F)c(C(F)(F)F)c1 (stereo not given) please.
A. 0%
